Entry source: patent US8338565B2

For each entry below, report its IC50 value.
target.or.test.system: TNFα / TNFα receptor (TNFα R1/Fc) (Homo sapiens, UniProt P01375)
Construct: purchased R&D Systems
Sequence (P01375 77-233 limits assumed, species assumed): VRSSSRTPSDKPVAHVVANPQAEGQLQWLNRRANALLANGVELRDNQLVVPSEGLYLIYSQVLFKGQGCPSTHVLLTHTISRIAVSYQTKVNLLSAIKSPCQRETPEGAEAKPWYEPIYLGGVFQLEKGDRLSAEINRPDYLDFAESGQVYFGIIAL
assay.method.text: Inhibition of binding of TNFα to the TNFα receptor (plate ELISA competition)
test.parameters: Table 2; read-out: Activity (IC50, inhibition of TNFα binding to TNFα R1/Fc)

Past entries and their recorded results:
structure_smiles=O=C(O)CCCNC(=O)[C@@H]1Cc2ccc(cc2)OCC(=O)N[C@@H](Cc2c[nH]c3ccccc23)C(=O)N[C@H](Cc2ccc(-c3ccccc3)cc2)C(=O)N[C@@H](CCc2ccccc2)C(=O)N1 target_or_test_system="TNFα / TNFα receptor (TNFα R1/Fc) (Homo sapiens, UniProt P01375)" observed_value="< 10 µM"
structure_smiles=O=C1COc2ccc(cc2)C[C@@H](C(=O)O)NC(=O)[C@@H](Cc2cccc(C(F)(F)F)c2)NC(=O)[C@H](Cc2ccc(-c3ccccc3)cc2)NC(=O)[C@@H](Cc2cccs2)N1 target_or_test_system="TNFα / TNFα receptor (TNFα R1/Fc) (Homo sapiens, UniProt P01375)" observed_value="> 100 µM"

q: Note down IC50 recorded for O=C1CCC(=O)NN(Cc2ccccc2)C(=O)N[C@@H](Cc2ccc(-c3ccccc3)cc2)C(=O)N[C@H](Cc2ccccc2)C(=O)N[C@H](C(=O)O)Cc2ccc(cc2)N1
a: 30 to 100 µM

* * *

Test system: TNF-α (degradation of IkB in HeLa cells or A431 cells)
assay.method.text: Human cell-based assay: inhibition of TNF-α induced degradation of IkB
test.parameters: 10 μM compound, HeLa or A431 cells, read-out: Inhibition at Various Compound Concentrations, 10 μM
Numbered stars: 1 amine (or outer) side, 2 acyl side, 3 side chain; on linkers, the order of the positions; unused ones are H or OH. Bridge positions count the residues as written; N and C are the ends. Square brackets hold non-standard residues; d marks the D form. Peptide text beside a SMILES is read from it. Phe(2,4-Cl2) = N[C@@H](Cc1ccc(Cl)cc1Cl)C(=O)O; Phe(4-NH2) = Nc1ccc(C[C@H](N)C(=O)O)cc1; d2Thi = N[C@H](Cc1cccs1)C(=O)O; Suc = O=C(CCC(=O)[*:2])[*:1]
parameter.measured: inhibition at 10 µM

molecule="O=C(O)[C@@H]1Cc2ccc(cc2)NC(=O)[C@H](O)[C@@H](O)C(=O)N[C@H](Cc2ccsc2)C(=O)N[C@@H](Cc2ccc(-c3ccccc3)cc2)C(=O)N[C@H](Cc2ccccc2)C(=O)N1 [Compound 318]" observed_value="10 to 50%"
molecule="O=C(O)[C@@H]1Cc2ccc(cc2)NC(=O)[C@H](O)[C@@H](O)C(=O)N[C@H](Cc2cccs2)C(=O)N[C@@H](Cc2ccc(-c3ccccc3)cc2)C(=O)N[C@H](CCc2ccccc2)C(=O)N1 [Compound 289]" observed_value="< 10%"
molecule="O=C(O)CCCNC(=O)[C@@H]1Cc2ccc(cc2)OCC(=O)N[C@@H](Cc2cccs2)C(=O)N[C@H](Cc2ccc(-c3ccccc3)cc2)C(=O)N[C@@H](Cc2ccccc2)C(=O)N1 [Compound 386]" observed_value="< 10%"

Could you now consider this next molecule?
q: Supply inhibition at 10 µM value. Item: O=C1CCC(=O)N[C@H](Cc2cccs2)C(=O)N[C@@H](Cc2ccc(Cl)cc2Cl)C(=O)N[C@H](Cc2ccccc2)C(=O)N[C@H](C(=O)O)Cc2ccc(cc2)N1 [Compound 82] ([d2Thi][Phe(2,4-Cl2)][dF][Phe(4-NH2)]-OH; linker N-4 via Suc)
a: < 10%
